- Test system: HeLa Kyoto;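 note: synchronized HeLa Kyoto cells, proteins quantified by TMT10plex mass spectrometry, three biological replicates, mitosis taken 0.5 h after nocodazole release, G1/S directly after double thymidine block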
- ASSAY INFO: thermal stability score vs G1/S (z-score of summed log2 fold changes over temperatures); higher = more thermally stable than in G1/S
- ASSAY CONTEXT: cell cycle stage: mitosis
Kind request: treat 0.6 as inclusive, so thermal stability score at 0.6 or higher is y, anything lower is n.

Solved entries (count: 2):
Is thermal stability score for MRPLTEEETRVMFEKIAKYIGENLQLLVDRPDGTYCFRLHNDRVYYVSEKIMKLAANISGDKLVSLGTCFGKFTKTHKFRLHVTALDYLAPYAKYKVWIKPGAEQSFLYGNHVLKSGLGRITENTSQYQGVVVYSMADIPLGFGVAAKSTQDCRKVDPMAIVVFHQADIGEYVRHEETLT [NIP7] at or above 0.6?
n

Hello, I need to know if MAAAAGDADDEPRSGHSSSEGECAVAPEPLTDAEGLFSFADFGSALGGGGAGLSGRASGGAQSPLRYLHVLWQQDAEPRDELRCKIPAGRLRRAARPHRRLGPTGKEVHALKRLRDSANANDVETVQQLLEDGADPCAADDKGRTALHFASCNGNDQIVQLLLDHGADPNQRDGLGNTPLHLAACTNHVPVITTLLRGGARVDALDRAGRTPLHLAKSKLNILQEGHAQCLEAVRLEVKQIIHMLREYLERLGQHEQRERLDDLCTRLQMTSTKEQVDEVTDLLASFTSLSLQMQSMEKR [ANKRD54] has measured thermal stability score not below 0.6. Thanks!
y

New cases:
Please tell me: is the sequence MYTAIPQSGSPFPGSVQDPGLHVWRVEKLKPVPVAQENQGVFFSGDSYLVLHNGPEEVSHLHLWIGQQSSRDEQGACAVLAVHLNTLLGERPVQHREVQGNESDLFMSYFPRGLKYQEGGVESAFHKTSTGAPAAIKKLYQVKGKKNIRATERALNWDSFNTGDCFILDLGQNIFAWCGGKSNILERNKARDLALAIRDSERQGKAQVEIVTDGEEPAEMIQVLGPKPALKEGNPEEDLTADKANAQAAALYKVSDATGQMNLTKVADSSPFALELLISDDCFVLDNGLCGKIYIWKGRKANEKERQAALQVAEGFISRMQYAPNTQVEILPQGHESPIFKQFFKDWK [CAPG] at or over 0.6 in terms of thermal stability score?
y

Check this sequence for thermal stability score at or above 0.6: MSQGDSNPAAIPHAAEDIQGDDRWMSQHNRFVLDCKDKEPDVLFVGDSMVQLMQQYEIWRELFSPLHALNFGIGGDTTRHVLWRLKNGELENIKPKVIVVWVGTNNHENTAEEVAGGIEAIVQLINTRQPQAKIIVLGLLPRGEKPNPLRQKNAKVNQLLKVSLPKLANVQLLDTDGGFVHSDGAISCHDMFDFLHLTGGGYAKICKPLHELIMQLLEETPEEKQTTIA [PAFAH1B2]
n
